- Test system: knock-out mutant of wis1 (JM544)
- assay.text: Growth (cell number) of wis1 knock-out mutant
- Type: cell-based, Schizosaccharomyces pombe
- condition.description: conclusion from growth of knock-out mutants
measurement.label: inhibition of the activity of Wis1 kinase, concluded from effects on knock-out mutants

{"compound": "COc1ccc2c(Cc3ccc(Cl)cc3)c3[n+](cc2c1OC)CCc1cc2c(cc1-3)OCO2.[I-] [13-(4-chlorobenzyl)berberine iodide]", "measured": "inhibited"}
{"compound": "COc1ccc2c(Cc3cccc(C(F)(F)F)c3)c3[n+](cc2c1OC)CCc1cc2c(cc1-3)OCO2.[Cl-]", "measured": "inhibited"}

###

- assayed.system: Wis1 kinase (Schizosaccharomyces pombe)
- Construct: The genes wis1 and spc1 were cloned into the pRep1 vector containing nmt1 promoter; made in house; host or cells: Schizosaccharomyces pombe KGY246 (pRep1 vector, nmt1 promoter)
- Sequence (P33886 whole entry): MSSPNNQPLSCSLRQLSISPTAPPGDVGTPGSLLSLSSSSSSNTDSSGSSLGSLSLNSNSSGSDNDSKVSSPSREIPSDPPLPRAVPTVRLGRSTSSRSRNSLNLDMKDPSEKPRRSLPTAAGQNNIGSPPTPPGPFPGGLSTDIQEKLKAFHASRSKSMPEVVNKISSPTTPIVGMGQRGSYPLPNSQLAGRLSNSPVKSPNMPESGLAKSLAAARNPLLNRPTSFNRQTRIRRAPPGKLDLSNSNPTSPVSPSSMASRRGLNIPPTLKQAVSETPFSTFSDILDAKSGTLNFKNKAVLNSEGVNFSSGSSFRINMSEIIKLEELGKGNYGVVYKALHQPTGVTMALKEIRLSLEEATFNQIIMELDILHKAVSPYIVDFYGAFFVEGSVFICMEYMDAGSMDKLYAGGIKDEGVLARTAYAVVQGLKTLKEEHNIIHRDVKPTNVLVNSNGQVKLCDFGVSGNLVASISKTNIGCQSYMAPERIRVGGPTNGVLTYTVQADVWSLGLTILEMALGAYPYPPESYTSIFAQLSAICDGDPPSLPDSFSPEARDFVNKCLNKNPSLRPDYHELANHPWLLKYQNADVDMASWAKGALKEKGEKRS
- assay.text: Wis1 kinase activity and autophosphorylation ([γ-32P]ATP, SDS-PAGE, FIG. 2)
- Format: biochemical
- condition.description: purified GST-Wis1, kinase reaction 30° C. 30 minutes, autophosphorylation also measured
measurement.label: inhibition of Wis1 kinase activity (in words)

{"molecule": "COc1ccc2c(Cc3cccc(C(F)(F)F)c3)c3[n+](cc2c1OC)CCc1cc2c(cc1-3)OCO2.[Cl-]", "measured": "directly inhibited"}
{"molecule": "COc1ccc2c(Cc3ccc(C)cc3)c3[n+](cc2c1OC)CCc1cc2c(cc1-3)OCO2.[Cl-] [13-(4-methylbenzyl)berberine chloride]", "measured": "directly inhibited"}
{"molecule": "COc1ccc2c(Cc3ccc(F)cc3C(F)(F)F)c3[n+](cc2c1OC)CCc1cc2c(cc1-3)OCO2.[Cl-]", "measured": "directly inhibited"}
{"molecule": "COC(=O)c1ccc(Cc2c3[n+](cc4c(OC)c(OC)ccc24)CCc2cc4c(cc2-3)OCO4)cc1", "measured": "directly inhibited"}

Measured values drawn from patent US20040029910A1 for this set.
